assay: splicing luciferase reporter signal modulators, primary screen, spliceosome inhibition project, cell-based, HEK293, splice +/- reporter (AID 1101); conditions: luminescence, 24 h, higher = more signal, called active from +8 up or from −8 down;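 also: HEK293 cells carrying a splicing-competent luciferase reporter gene; test concentration not given here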
Rule: z-score of -1 or more gives YES; anything lower gives NO.

Use the examples below as a reference point.
# compound, group
rows = [
    ("CCOC(=O)C[C@H]1[C@H](OC(=O)Cc2ccc3c(c2)OCO3)[C@@H](NC(=O)c2ccc3ccccc3c2)c2cc(OCCCO)ccc2N1C(=O)c1ccc2ccccc2n1", "NO"),
    ("CC(C)C(CO)N1C(=O)[C@@H]2C3C(=O)OCCC/C=C\\[C@H]3OC23C=CCN(C(C)C)C(=O)[C@@H]13 (stereo partly specified)", "YES"),
    ("COCCOC(=O)N1C(=O)[C@@]2(c3ccccc31)[C@H](C(=O)Nc1nc3ccccc3s1)[C@H]1C(=O)O[C@H](c3ccccc3)[C@H](c3ccccc3)N1[C@@H]2c1ccc(O)cc1", "NO"),
    ("CC(C)(C)OC(=O)CC[C@@]1(C(=O)N2CCOCC2)N=C(c2ccc(OCCCO)cc2)O[C@@H]1c1ccccc1", "NO"),
    ("COC(=O)C(CC#Cc1ccc2c(c1)[C@]1(C(=O)N2)[C@H](c2ccccc2OCCO)N2[C@H](c3ccccc3)[C@H](c3ccccc3)OC(=O)[C@H]2[C@@H]1C(=O)N1CCCCCCC1)C(=O)OC", "NO"),
]

Entry O=c1n(-c2ccccc2)c(=O)n2n1CC(COc1ccccc1)=C1[C@@H](CCc3ccccc3)OB(O)C[C@@H]12 : is its z-score no less than -1?
NO
